IC50 overview
# measurementTarget: human IDO1 (Homo sapiens)
# assay: Assessment of human IDO-1 inhibitory activity in Hela cells (Interferon-gamma stimulated HeLa cells, Ehrlich reagent, absorbance 490 nm)
# Format: cell-based
# Set-up: endogenous in cells; host or cells: HeLa cells stimulated with interferon-gamma
# conditionParameters: Hela Human IDO-1 cellular assay

Q. Report IC50 for CCOc1ncc(Nc2cc(C(CC)CC(=O)O)ccc2N2CCN(C(=O)OC)CC2)cn1 (single isomer, unassigned) [Example 669] please.
A. > 50 nM

Q. Report IC50 for COCC(CC(=O)O)c1ccc(N(C)C2CCOCC2)c(Nc2ccc(Cl)cc2)c1 (single isomer, unassigned) [Example 877] please.
A. > 50 nM

---

# measurementTarget: UniProt:P14902
# assay: Assessment of human IDO-1 inhibitory activity in HEK cells (human IDO1/HEK293 cells, kynurenine read-out with Ehrlich reagent, absorbance 490 nm)
# Assay type: cell-based
# Set-up: expressed in transfected cells
# conditionParameters: HEK Human IDO-1 cellular assay
metric: IC50

# annotated cases, reported IC50 shown
{"molecule": "CCOc1ccc(NC(=O)Nc2cc(C(COC)CC(=O)O)ccc2N(CC(C)C)C2CCCCC2)c(F)c1 (single isomer, unassigned) [Example 1236]", "measurementTarget": "UniProt:P14902", "IC50": "< 5 nM"}
{"molecule": "COCC(CC(=O)O)c1cc(F)c(N(CC(C)C)CC(C)C)c(NC(=O)Nc2ccc(C)cc2)c1 (single isomer, unassigned) [Example 1194]", "measurementTarget": "UniProt:P14902", "IC50": "< 50 nM"}
{"molecule": "CCN(c1ccc(C(C)(C)CC(=O)O)cc1Nc1cnc(OC)nc1)C1CCOCC1 [Example 162]", "measurementTarget": "UniProt:P14902", "IC50": "< 50 nM"}

Q. Report IC50 for CC[C@H](CC(=O)O)c1ccc(N(CC)C2CCOCC2)c(Nc2ccn3nccc3n2)c1 (single isomer, unassigned) [Example 511] please.
A. > 50 nM

Q. Report IC50 for CC[C@@H](CC(=O)O)c1ccc(N(CC)C2CCOCC2)c(NC(=O)Nc2ccc(OC)cc2F)c1 (single isomer, unassigned) [Example 493] please.
A. > 50 nM

---

# measurementTarget: human IDO1 (Homo sapiens, UniProt P14902)
# Sequence (P14902 whole entry): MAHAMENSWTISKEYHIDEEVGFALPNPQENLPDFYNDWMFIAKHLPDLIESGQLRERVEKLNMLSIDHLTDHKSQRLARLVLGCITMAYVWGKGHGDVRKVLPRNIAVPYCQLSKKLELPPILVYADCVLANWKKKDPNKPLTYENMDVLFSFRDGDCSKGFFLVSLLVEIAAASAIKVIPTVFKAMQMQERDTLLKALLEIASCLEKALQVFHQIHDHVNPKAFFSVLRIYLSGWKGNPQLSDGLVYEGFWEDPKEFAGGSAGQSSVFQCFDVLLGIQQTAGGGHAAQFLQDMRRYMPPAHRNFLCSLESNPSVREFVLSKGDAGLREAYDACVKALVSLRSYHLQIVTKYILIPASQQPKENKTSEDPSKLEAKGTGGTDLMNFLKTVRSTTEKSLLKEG
# assay: Assessment of human IDO-1 inhibitory activity in HEK cells (human IDO1/HEK293 cells, kynurenine read-out with Ehrlich reagent, absorbance 490 nm)
# Format: cell-based
# Design: expressed in transfected cells
# conditionParameters: HEK Human IDO-1 cellular assay
IC50 overview

# annotated cases, reported IC50 shown
{"compound": "CCC(CC(=O)O)c1cc(F)c(N(CC(C)C)CC(C)C)c(Nc2ccc3c(c2)OC(F)(F)O3)c1 (single isomer, unassigned) [Example 101]", "IC50": "< 5 nM"}
{"compound": "CC(CC(=O)O)c1ccc(N(CC(C)(C)O)C2CCOCC2)c(Nc2ccc(C#N)cc2)c1 (single isomer, unassigned) [Example 196]", "IC50": "< 5 nM"}

Q. // fetch human IDO1 (Homo sapiens, UniProt P14902) IC50 for CCC(CC(=O)O)c1ccc(N(CC(C)C)C2CCCCC2)c(Nc2ccc(Cl)c(F)c2)c1 (single isomer, unassigned) [Example 310]
A. < 5 nM

---

# measurementTarget: human IDO1 (Homo sapiens, UniProt P14902)
# assay: Assessment of human IDO-1 inhibitory activity in Hela cells (Interferon-gamma stimulated HeLa cells, Ehrlich reagent, absorbance 490 nm)
# Assay type: cell-based
# Design: endogenous in cells; host or cells: HeLa cells stimulated with interferon-gamma
# conditionParameters: Hela Human IDO-1 cellular assay
metric: IC50

{"compound": "CCN(c1ccc([C@@H](COC)CC(=O)O)cc1Nc1ccc(C#N)c(C(F)(F)F)c1)C1CCOCC1 (single isomer, unassigned)", "metric": "IC50", "result": "> 50 nM"}

Q. Report IC50 for CCOc1ncc(Nc2cc(C(COC)CC(=O)O)ccc2N2CCC(c3ccccc3)CC2)cn1 (single isomer, unassigned) [Example 1351] please.
A. < 50 nM

Q. Report IC50 for Cc1ccc(NC(=O)Nc2cc(C(C)CC(=O)O)ccc2N2C[C@@H](C)O[C@@H](C)C2)cc1 (single isomer, unassigned) please.
A. > 50 nM

Q. Report IC50 for CC(CC(=O)O)c1ccc(N(CC(C)(C)O)C2CCCCC2)c(Nc2ccc3c(c2)OC(F)(F)O3)c1 (single isomer, unassigned) please.
A. < 50 nM

Q. Report IC50 for CCC(CC(=O)O)c1ccc(N2CCC(C)CC2)c(NC(=O)Nc2ccc(C)cc2)c1 (single isomer, unassigned) [Example 46 Enantiomer 1] please.
A. > 50 nM

Q. Report IC50 for CCN(c1ccc(C(C)(C)CC(=O)O)cc1Nc1ccc(C#N)cc1)C1CCC(C)(O)CC1 (stereo not shown) please.
A. < 50 nM

Q. Report IC50 for CCN(c1ccc([C@H](COC)CC(=O)O)cc1NC(=O)Nc1ccc(F)cc1F)C1CCOCC1 (single isomer, unassigned) please.
A. > 50 nM

Q. Report IC50 for CC[C@@H](CC(=O)O)c1ccc(N(CC)C2CCOCC2)c(Nc2cnc(C)nc2)c1 (single isomer, unassigned) please.
A. < 5 nM

Q. Report IC50 for COCC(CC(=O)O)c1cc(F)c(N(CC(C)C)CC(C)C)c(Nc2ccc3c(c2)OC(F)(F)O3)c1 (single isomer, unassigned) please.
A. < 50 nM

Q. Report IC50 for CCOc1ncc(Nc2cc(C(CC)CC(=O)O)c(F)cc2N(CC)C2CCOCC2)cn1 (single isomer, unassigned) please.
A. < 5 nM

---

# measurementTarget: UniProtKB P14902
# assay: Assessment of human IDO-1 inhibitory activity in Hela cells (Interferon-gamma stimulated HeLa cells, Ehrlich reagent, absorbance 490 nm)
# Type: cell-based
# Parameters: endogenous in cells; host or cells: HeLa cells stimulated with interferon-gamma
# conditionParameters: Hela Human IDO-1 cellular assay
metric: IC50

{"molecule": "CCC(CC(=O)O)c1ccc(N(CCOC)C2CCOCC2)c(NC(=O)Nc2ccc(C)cc2)c1 (single isomer, unassigned) [Example 1264 E1]", "measurementTarget": "UniProtKB P14902", "IC50": "> 50 nM"}
{"molecule": "CC(CC(=O)O)c1ccc(N2C[C@@H](C)O[C@@H](C)C2)c(NC(=O)Nc2ccc(Cl)cc2F)c1 (single isomer, unassigned) [Example 749 Enantiomer 1]", "measurementTarget": "UniProtKB P14902", "IC50": "> 50 nM"}

Q. Report IC50 for CCOc1ncc(Nc2cc([C@@H](CC(=O)O)C(F)(F)F)ccc2N(CC)C2CCOCC2)cn1 please.
A. < 5 nM

Q. Report IC50 for CCCN(c1ccc([C@@H](COC)CC(=O)O)cc1NC(=O)Nc1ccc(Cl)cc1F)C1CCOCC1 (single isomer, unassigned) please.
A. < 50 nM

Q. Report IC50 for COCCN(c1ccc(C(C)(C)CC(=O)O)cc1NC(=O)Nc1ccc(C)cc1)C1CCOCC1 please.
A. > 50 nM

Q. Report IC50 for CCN(c1ccc(C(C)(C)CC(=O)O)cc1Nc1ccc(C#N)cc1)C1CCS(=O)(=O)CC1 please.
A. < 50 nM

Q. Report IC50 for CCN(c1cc(F)c(C(COC)CC(=O)O)cc1Nc1ccc(C#N)cc1F)C1CCOCC1 (single isomer, unassigned) please.
A. < 5 nM

Q. Report IC50 for CCN(c1ccc(C(C)CC(=O)O)cc1Nc1cnc(OC)nc1)C1CCOCC1 (single isomer, unassigned) please.
A. < 50 nM

Q. Report IC50 for CCN(c1ccc([C@@H](COC)CC(=O)O)cc1Nc1ccc(C#N)c(Cl)c1)C1CCOCC1 (single isomer, unassigned) please.
A. < 50 nM

Q. Report IC50 for CCC1COCCN1c1ccc([C@@H](COC)CC(=O)O)cc1Nc1cnc(OC)nc1 (single isomer, unassigned) please.
A. > 50 nM

Q. Report IC50 for CCC(CC(=O)O)c1cc(F)c(N(CC)C2CCOCC2)c(Nc2cnc(OC)nc2)c1 (single isomer, unassigned) [Example 135] please.
A. < 50 nM

Q. Report IC50 for CCN(c1ccc(C(C)(C)CC(=O)O)cc1Nc1ccc2c(c1)OC(F)(F)O2)C1CCS(=O)(=O)CC1 please.
A. < 5 nM

Q. Report IC50 for CCOc1ncc(Nc2cc(C(COC)CC(=O)O)ccc2N2CCC(c3ccccc3)CC2)cn1 (single isomer, unassigned) [Example 1354] please.
A. < 5 nM

Q. Report IC50 for CCC(CC(=O)O)c1ccc(N(C)C2CCOCC2)c(Nc2cnc(OC)nc2)c1 (single isomer, unassigned) [Example 871] please.
A. > 50 nM

Q. Report IC50 for CCC(CC(=O)O)c1cnc(N(CC)C2CCOCC2)c(NC(=O)Nc2ccc(C)cc2)c1 (racemic) please.
A. < 50 nM

Q. Report IC50 for CC[C@H](CC(=O)O)c1ccc(N(CC)C2CCOCC2)c(Nc2ccc(Cl)cn2)c1 (single isomer, unassigned) please.
A. < 5 nM

Q. Report IC50 for CCN(c1ccc([C@@H](COC)CC(=O)O)cc1Nc1ccc(C(F)(F)F)cc1)C1CCOCC1 (single isomer, unassigned) please.
A. < 5 nM

Q. Report IC50 for CCCN(c1ccc([C@H](COC)CC(=O)O)cc1Nc1ccc2nc(C)sc2c1)C1CCOCC1 (single isomer, unassigned) please.
A. < 50 nM

Q. Report IC50 for CCC(CC(=O)O)c1cc(F)c(N(CC)C2CCOCC2)c(Nc2cnc(OCC3CC3)nc2)c1 (single isomer, unassigned) [Example 136] please.
A. < 50 nM

Q. Report IC50 for CCN(c1ccc(C(C)CC(=O)O)cc1Nc1ccc2c(c1)OC(F)(F)O2)C1CCOCC1 (single isomer, unassigned) please.
A. < 5 nM

Q. Report IC50 for CCC(CC(=O)O)c1ccc(N(CC)C2CCS(=O)(=O)CC2)c(Nc2ccc(Cl)cc2)c1 (single isomer, unassigned) [Example 334 Enantiomer 1] please.
A. < 5 nM

Q. Report IC50 for CCOc1ccc(Nc2cc(C(C)CC(=O)O)ccc2N(CC)C2CCOCC2)nn1 (single isomer, unassigned) [Example 624] please.
A. > 50 nM

Q. Report IC50 for CCC1COCCN1c1ccc([C@@H](COC)CC(=O)O)cc1Nc1ccc(C#N)c(F)c1 (single isomer, unassigned) please.
A. > 50 nM

Q. Report IC50 for CCC1COCCN1c1ccc([C@@H](COC)CC(=O)O)cc1Nc1ccc(Cl)cc1 (single isomer, unassigned) [Example 1286] please.
A. > 50 nM
